# MIC80 per entry
- Tested on: Cryptococcus neoformans
- Test Details: Antifungal activity against Cryptococcus neoformans after 72 hrs by serial dilution method
- Assay type: functional
Just the number in µg/mL, nothing appended.

Below are worked cases with known answers.
Exam item: Write down MIC80 measured for item C=CCN(CCCOc1ccccc1)CC(O)(Cn1cncn1)c1ccc(F)cc1F (racemic)
Marked response: 2

Exam item: Write down MIC80 measured for item CCOC(=O)CN(CCCOc1ccc(Br)cc1)CC(O)(Cn1cncn1)c1ccc(F)cc1F (racemic)
Marked response: 32

Exam item: Write down MIC80 measured for item CCN(CCCOc1ccccc1)CC(O)(Cn1cncn1)c1ccc(F)cc1F (racemic)
Marked response: 1

New cases:
Exam item: Write down MIC80 measured for item CN(CCCOc1ccccc1)CC(O)(Cn1cncn1)c1ccc(F)cc1F (centres undefined)
Marked response: 1

Exam item: Write down MIC80 measured for item C=CCN(CCCOc1ccc(Br)cc1)CC(O)(Cn1cncn1)c1ccc(F)cc1F (racemic)
Marked response: 4

Exam item: Write down MIC80 measured for item CCC(C)n1ncn(-c2ccc(N3CCN(c4ccc(OCC5COC(Cn6cncn6)(c6ccc(Cl)cc6Cl)O5)cc4)CC3)cc2)c1=O (centres undefined) [ITRACONAZOLE]
Marked response: 0.5

Exam item: Write down MIC80 measured for item CC(C)CN(CCCOc1ccc(Br)cc1)CC(O)(Cn1cncn1)c1ccc(F)cc1F (racemic)
Marked response: 16

Exam item: Write down MIC80 measured for item CCCCN(CCCOc1ccccc1)CC(O)(Cn1cncn1)c1ccc(F)cc1F (racemic)
Marked response: 4

====

- Tested on: Cryptococcus neoformans
- Test Details: Antifungal activity against Cryptococcus neoformans after 72 hrs by serial dilution method
- Type: functional
# MIC80 per entry
Just the number in µg/mL, nothing appended.

Exam item: Write down MIC80 measured for item COC(=O)CN(CCCOc1ccc(Br)cc1)CC(O)(Cn1cncn1)c1ccc(F)cc1F (racemic)
Marked response: 8

Exam item: Write down MIC80 measured for item Cc1ccc(CN(CCCOc2ccc(Br)cc2)CC(O)(Cn2cncn2)c2ccc(F)cc2F)cc1 (racemic)
Marked response: 64

Exam item: Write down MIC80 measured for item COC(=O)CN(CCCOc1ccccc1)CC(O)(Cn1cncn1)c1ccc(F)cc1F (racemic)
Marked response: 16

Exam item: Write down MIC80 measured for item OC(Cn1cncn1)(Cn1cncn1)c1ccc(F)cc1F [FLUCONAZOLE]
Marked response: 2

Exam item: Write down MIC80 measured for item CCCN(CCCOc1ccccc1)CC(O)(Cn1cncn1)c1ccc(F)cc1F (racemic)
Marked response: 1

Exam item: Write down MIC80 measured for item C#CCN(CCCOc1ccccc1)CC(O)(Cn1cncn1)c1ccc(F)cc1F (racemic)
Marked response: 4

Exam item: Write down MIC80 measured for item OC(CN(CCCOc1ccc(Br)cc1)Cc1ccc(F)cc1)(Cn1cncn1)c1ccc(F)cc1F (racemic)
Marked response: 32

Exam item: Write down MIC80 measured for item CCCN(CCCOc1ccc(Br)cc1)CC(O)(Cn1cncn1)c1ccc(F)cc1F (racemic)
Marked response: 4

Exam item: Write down MIC80 measured for item CC(C)(C)OC(=O)CN(CCCOc1ccc(Br)cc1)CC(O)(Cn1cncn1)c1ccc(F)cc1F (racemic)
Marked response: 64

Exam item: Write down MIC80 measured for item CN(CCCOc1ccc(Br)cc1)CC(O)(Cn1cncn1)c1ccc(F)cc1F (stereo unspecified)
Marked response: 1

New cases:
Exam item: Write down MIC80 measured for item OC(CNCCCOc1ccccc1)(Cn1cncn1)c1ccc(F)cc1F (racemic)
Marked response: 1

Exam item: Write down MIC80 measured for item OC(CN(CCCOc1ccccc1)Cc1ccccc1)(Cn1cncn1)c1ccc(F)cc1F (racemic)
Marked response: 16

Exam item: Write down MIC80 measured for item OC(CNCCCOc1ccc(Br)cc1)(Cn1cncn1)c1ccc(F)cc1F (racemic)
Marked response: 1

Exam item: Write down MIC80 measured for item C#CCN(CCCOc1ccc(Br)cc1)CC(O)(Cn1cncn1)c1ccc(F)cc1F (racemic)
Marked response: 8
